FYI, the data here is from paper PMC8753592.

# assayOverview: Pilot pharmacokinetic study, single subcutaneous administration
# conditionDescription: male, Indian origin, rhesus monkey, in vivo, 100 mg/kg, Plasma GS-CA1 level, 100 mg/kg s.c.; 0.047 weeks post dose; individual animals; unit inferred
metric: concentration at 0.047 weeks (nM)

[[record]]
compound = "CC(C)(C#Cc1ccc(-c2ccc(Cl)c3c(NS(=O)(=O)C4CC4)nn(CC(F)F)c23)c([C@H](Cc2cc(F)cc(F)c2)NC(=O)Cn2nc(C(F)F)c3c2C(F)(F)[C@@H]2C[C@H]32)n1)S(C)(=O)=O [GS-CA1]"
observedresult = 436


---

# assayOverview: Pilot pharmacokinetic study, single subcutaneous administration
# conditionDescription: male, Indian origin, rhesus monkey, in vivo, 300 mg/kg, Plasma GS-CA1 level, 300 mg/kg s.c.; 0.57 weeks post dose; individual animals; unit inferred
metric: concentration at 0.57 weeks

[[record]]
cpdsmiles = "CC(C)(C#Cc1ccc(-c2ccc(Cl)c3c(NS(=O)(=O)C4CC4)nn(CC(F)F)c23)c([C@H](Cc2cc(F)cc(F)c2)NC(=O)Cn2nc(C(F)F)c3c2C(F)(F)[C@@H]2C[C@H]32)n1)S(C)(=O)=O"
observedresult = "1920 nM"


---

# assayOverview: Pilot pharmacokinetic study, single subcutaneous administration
# conditionDescription: male, Indian origin, rhesus monkey, in vivo, 100 mg/kg, Plasma GS-CA1 level, 100 mg/kg s.c.; 0.29 weeks post dose; individual animals; unit inferred
metric: concentration at 0.29 weeks (nM)

[[record]]
cpdsmiles = "CC(C)(C#Cc1ccc(-c2ccc(Cl)c3c(NS(=O)(=O)C4CC4)nn(CC(F)F)c23)c([C@H](Cc2cc(F)cc(F)c2)NC(=O)Cn2nc(C(F)F)c3c2C(F)(F)[C@@H]2C[C@H]32)n1)S(C)(=O)=O"
observedresult = 1160


---

# assayOverview: Pilot pharmacokinetic study, single subcutaneous administration
# conditionDescription: male, Indian origin, rhesus monkey, in vivo, 300 mg/kg, Plasma GS-CA1 level, 300 mg/kg s.c.; 10 weeks post dose; individual animals; unit inferred
metric: concentration at 10 weeks (nM)

[[record]]
cpdsmiles = "CC(C)(C#Cc1ccc(-c2ccc(Cl)c3c(NS(=O)(=O)C4CC4)nn(CC(F)F)c23)c([C@H](Cc2cc(F)cc(F)c2)NC(=O)Cn2nc(C(F)F)c3c2C(F)(F)[C@@H]2C[C@H]32)n1)S(C)(=O)=O"
metric = "concentration at 10 weeks"
observedresult = 109


---

# assayOverview: in vivo
# conditionDescription: male, Indian origin, rhesus monkey, in vivo, sc, 100 mg/kg, AUC0-1680h
metric: AUC(0-t) (µM·h)

[[record]]
cpdsmiles = "CC(C)(C#Cc1ccc(-c2ccc(Cl)c3c(NS(=O)(=O)C4CC4)nn(CC(F)F)c23)c([C@H](Cc2cc(F)cc(F)c2)NC(=O)Cn2nc(C(F)F)c3c2C(F)(F)[C@@H]2C[C@H]32)n1)S(C)(=O)=O"
readoutunit = "µM·h"
observedresult = 310


---

# assayOverview: in vivo
# conditionDescription: male, Indian origin, rhesus monkey, in vivo, sc, 300 mg/kg
metric: Tmax

[[record]]
cpdsmiles = "CC(C)(C#Cc1ccc(-c2ccc(Cl)c3c(NS(=O)(=O)C4CC4)nn(CC(F)F)c23)c([C@H](Cc2cc(F)cc(F)c2)NC(=O)Cn2nc(C(F)F)c3c2C(F)(F)[C@@H]2C[C@H]32)n1)S(C)(=O)=O"
observedresult = "48 h"

